The entries below come with measured IC50 values attached.
tested system: wild-type Androgen Receptor (AR-wt) (Homo sapiens)
Construct: expressed in transfected cells; host or cells: LNCaP
Sequence (P10275 1-920): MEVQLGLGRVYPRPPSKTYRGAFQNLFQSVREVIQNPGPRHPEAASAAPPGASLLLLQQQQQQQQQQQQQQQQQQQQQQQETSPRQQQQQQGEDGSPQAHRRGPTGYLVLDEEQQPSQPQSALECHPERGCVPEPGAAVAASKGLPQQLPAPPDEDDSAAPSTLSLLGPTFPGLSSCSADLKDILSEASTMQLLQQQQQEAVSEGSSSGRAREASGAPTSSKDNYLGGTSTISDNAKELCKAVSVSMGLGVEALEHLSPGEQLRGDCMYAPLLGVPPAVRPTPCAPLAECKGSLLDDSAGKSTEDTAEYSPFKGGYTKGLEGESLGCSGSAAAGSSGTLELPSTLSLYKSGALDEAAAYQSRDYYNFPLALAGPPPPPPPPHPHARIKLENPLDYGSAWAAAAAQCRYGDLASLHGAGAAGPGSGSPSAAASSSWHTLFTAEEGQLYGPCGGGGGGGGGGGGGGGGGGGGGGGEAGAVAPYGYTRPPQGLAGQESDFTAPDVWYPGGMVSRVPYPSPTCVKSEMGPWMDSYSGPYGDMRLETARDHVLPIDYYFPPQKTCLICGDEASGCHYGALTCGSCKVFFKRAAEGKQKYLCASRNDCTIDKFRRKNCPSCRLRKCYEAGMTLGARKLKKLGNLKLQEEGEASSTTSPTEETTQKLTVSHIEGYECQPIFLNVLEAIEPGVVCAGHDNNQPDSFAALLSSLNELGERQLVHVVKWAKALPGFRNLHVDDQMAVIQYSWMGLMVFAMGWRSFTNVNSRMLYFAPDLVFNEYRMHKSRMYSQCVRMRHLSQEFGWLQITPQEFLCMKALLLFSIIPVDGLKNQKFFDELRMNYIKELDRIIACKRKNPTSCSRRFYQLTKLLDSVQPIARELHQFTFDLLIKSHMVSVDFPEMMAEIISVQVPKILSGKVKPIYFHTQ
method description: AR reporter assay, LNCaP-AR-wt ANT (antagonist mode)
Format: cell-based
assay context: antagonist mode, 400 pM R-1881 challenge, luciferase reporter; -Log10(IC50 in Molar); read-out: LNCaP-AR-wt ANT pIC50 (converted)

Example entries begin here.
- COc1cc(N2C(=O)C3(CCC3)N(c3ccc(OC4CCN(C)CC4)nc3)C2=S)ccc1C#N [Compound 20]: 214 nM
- COc1cc(N2C(=O)C3(CCC3)N(c3ccc(OC4CCN(C)CC4)cc3)C2=S)ccc1C#N [Compound 19]: 141 nM
- Cc1cc(N2C(=O)C3(CCC3)N(c3ccc(OC4CCN(C)CC4)nc3)C2=S)ccc1C#N [Compound 18]: 36.3 nM
- Cc1cc(N2C(=O)C3(CCC3)N(c3ccc(OC4CCN(C)CC4)cc3)C2=S)ccc1C#N [Compound 17]: 170 nM
- N#Cc1ccc(N2C(=O)C3(CCC3)N(c3cnc(OC4CCNCC4)nc3)C2=S)cc1C(F)(F)F [Compound 15]: 158 nM

Prompt: Give me measured IC50, please, for this compound: CN1CCC(Oc2ncc(N3C(=S)N(c4ccc(C#N)c(C(F)(F)F)c4)C(=O)C34CCC4)cn2)CC1 [Compound 16]
Response: 209 nM

Prompt: Input N#Cc1ccc(N2C(=O)C3(CCC3)N(c3ccc(OC4CCNCC4)cc3)C2=S)cc1Cl [Compound 21] , output reported IC50.
Response: 331 nM
